- Test system: mouse
- Assay notes: Study of the acute toxicity
- Format: in vivo
- Run conditions: single administration, oral (O)
Property: LD0 (maximum dose which did not cause any deaths over 8 days) (mg/kg)
Unit mg/kg implied. Number only.

Request: GET LD0 (maximum dose which did not cause any deaths over 8 days) where system = mouse and item = COc1ccc(C2CSc3ccccc3N(CCN3CCN(C)CC3)C2=O)cc1 (centres unmarked) [Example 7]
Result: 100

Request: Determine reported LD0 (maximum dose which did not cause any deaths over 8 days) for CN(C)CCN1C(=O)C(c2ccc(Cl)cc2)CSc2ccccc21.Cl (centres unmarked) [Example 11] ; test system: mouse.
Result: 100

Request: State LD0 (maximum dose which did not cause any deaths over 8 days) on mouse. Entry: COc1ccc(C2CSc3ccccc3N(CCCN(C)C)C2=O)cc1 (centres unmarked) [Example 6]
Result: 100

----------
- Tested on: blood-platelets (rabbit PRP)
- Assay notes: Blood-platelet aggregation, in vitro, on plasma rich in blood-platelets (PRP)
- Type: cell-based
- Run conditions: Oryctolagus cuniculus, 2 min, induction by PAF-ACETHER (0.05 micromoles per liter of PRP), 2 minutes incubation; read-out: IC50 (concentration inhibiting the aggregation by 50%)
Structures can show the parent of a compound that is named as a salt.
Property: pIC50
Expect pIC50 as a plain number equal to -log10 of the molar concentration.

Request: State its pIC50 for this compound: COc1ccc(C2CSc3ccccc3N(CCN3CCCC3)C2=O)cc1 (stereo not shown) [Example 1]
Result: 4.11

Request: Please supply the value of reported pIC50 for the item COc1ccc(C2CSc3ccccc3N(CCN(C(C)C)C(C)C)C2=O)cc1 (racemic) [Example 9, hydrochloride]
Result: 4.24

Request: Supply pIC50 value. Item: COc1ccccc1C1CSc2ccccc2N(CCN(C)C)C1=O.Cl (stereo not shown) [Example 12, hydrochloride]
Result: 5.05

Request: Given the compound CN(C)CCN1C(=O)C(c2ccc(Cl)cc2)CSc2ccccc21.Cl (stereo not shown) [Example 11, hydrochloride] , write its reported pIC50.
Result: 4.40

----------
Would you mind telling me the reported LD0 (maximum dose which did not cause any deaths over 8 days) of each entry?
- Test system: mouse
- Assay notes: Study of the acute toxicity
- Format: in vivo
- Run conditions: single administration, IP
Write down the numeric answer in mg/kg and omit the unit.

Request: Give LD0 (maximum dose which did not cause any deaths over 8 days) for the following compound: COc1ccc(C2CSc3ccccc3N(CCN(C)C)C2=O)cc1 (centres unmarked)
Result: 80

Request: Annotate the compound COc1ccccc1C1CSc2ccccc2N(CCN(C)C)C1=O.Cl (centres unmarked) with its measured LD0 (maximum dose which did not cause any deaths over 8 days).
Result: 100

Request: Tell me its LD0 (maximum dose which did not cause any deaths over 8 days) given COc1ccc(C2CSc3ccccc3N(CCCN(C)C)C2=O)cc1 (centres unmarked) as the entry.
Result: 100

Request: Return the recorded LD0 (maximum dose which did not cause any deaths over 8 days) value; entry: CN(C)CCN1C(=O)C(c2ccc(Cl)cc2)CSc2ccccc21.Cl (centres unmarked)
Result: 80

Request: For the compound COc1ccc(C2CSc3ccccc3N(CCN3CCN(C)CC3)C2=O)cc1 (centres unmarked) , give its reported LD0 (maximum dose which did not cause any deaths over 8 days).
Result: 100
